Where these numbers come from: paper PMC11050599

System: A549 cells
Protocol summary: Annexin V-FITC/PI apoptosis flow cytometry, A549
Type: cell-based, human
Measurement setup: representative dot plot, Figure 4A, IC50, 72 h
The entries below are paired with their reported A549: Necrotic/Late Apoptotic.
Record the value in %, omitting the unit from your answer.

Cc1ccc(S(=O)(=O)NCCCCN2c3cc(Cl)ccc3Sc3cc4ccccc4nc32)cc1 | 50.34
O=C(NCCCl)NCCCN1c2cc(Cl)ccc2Sc2cc3ccccc3nc21 | 0.89
O=C(NCCCl)NCCCCN1c2cc(Cl)ccc2Sc2cc3ccccc3nc21 | 79.52

Which measured A549: Necrotic/Late Apoptotic belongs to CN(C)CCCN1c2cc(Cl)ccc2Sc2cc3ccccc3nc21 , tested on A549 cells? 10.27

====

Test system: S. epidermidis ATCC 12228
Protocol summary: MIC broth microdilution
Assay type: cell-based
Measurement setup: Staphylococcus epidermidis, ATCC12228; 19 h, 35 °C; read-out: MIC S. epidermidis ATCC 12228
Reported metric: MIC (µg/mL)
Record the value in µg/mL, omitting the unit from your answer.

CN(C)CCCN1c2cc(Cl)ccc2Sc2cc3ccccc3nc21 | 8

# context switch: different molecule, same MIC
Bench note: what MIC did CN1CCCCC1CCN1c2cc(Cl)ccc2Sc2cc3ccccc3nc21 (centres unmarked) show? 256

====

Test system: S. epidermidis ATCC 12228
Protocol summary: MIC broth microdilution
Format: cell-based
Measurement setup: Staphylococcus epidermidis, ATCC12228; 19 h, 35 °C; read-out: MIC S. epidermidis ATCC 12228
Reported metric: MIC

CC(=O)NCCCN1c2cc(Cl)ccc2Sc2cc3ccccc3nc21 | > 256 µg/mL
CCN(CC)CCN1c2cc(Cl)ccc2Sc2cc3ccccc3nc21 | 8 µg/mL
Cc1ccc(S(=O)(=O)NCCCN2c3cc(Cl)ccc3Sc3cc4ccccc4nc32)cc1 | > 256 µg/mL
N#Cc1ccc(Cn2cc(CN3c4cc(Cl)ccc4Sc4cc5ccccc5nc43)nn2)cc1 | > 256 µg/mL
CS(=O)(=O)NCCCN1c2cc(Cl)ccc2Sc2cc3ccccc3nc21 | > 256 µg/mL

# context switch: different compound, same MIC
Bench note: what MIC did Clc1ccc2c(c1)N(CCN1CCCCC1)c1nc3ccccc3cc1S2 show? > 256 µg/mL

====

Test system: A549 (lung cancer)
Protocol summary: MTT assay, A549 cells
Type: cell-based, human
Measurement setup: SI = IC50 for normal cell line (HaCaT)/IC50 cancer cell line
The entries below are paired with their reported SI A549.
Keep the answer to the number alone.

In the examples that follow, each entry is paired with its recorded SI A549.
CN1CCCCC1CCN1c2cc(Cl)ccc2Sc2cc3ccccc3nc21 (stereo not drawn) | 1
Clc1ccc2c(c1)N(CCN1CCCCC1)c1nc3ccccc3cc1S2 | 1.6
CC(=O)NCCCCN1c2cc(Cl)ccc2Sc2cc3ccccc3nc21 | 1.2
Clc1ccc2c(c1)N(CCN1CCCC1)c1nc3ccccc3cc1S2 | 5.7
Clc1ccc2c(c1)N(Cc1cn(-c3ccccc3)nn1)c1nc3ccccc3cc1S2 | 2.5
CCN(CC)CCN1c2cc(Cl)ccc2Sc2cc3ccccc3nc21 | 3.7

Which measured SI A549 belongs to Fc1ccc(Cn2cc(CN3c4cc(Cl)ccc4Sc4cc5ccccc5nc43)nn2)cc1 , tested on A549 (lung cancer)? 1.0

Which measured SI A549 belongs to CCOC(=O)NCCCCN1c2cc(Cl)ccc2Sc2cc3ccccc3nc21 , tested on A549 (lung cancer)? 1.0

Which measured SI A549 belongs to CC(=O)NCCCN1c2cc(Cl)ccc2Sc2cc3ccccc3nc21 , tested on A549 (lung cancer)? 4.1

====

Test system: S. epidermidis ATCC 12228
Protocol summary: MIC broth microdilution
Type: cell-based
Measurement setup: Staphylococcus epidermidis, ATCC12228; 19 h, 35 °C; read-out: MIC S. epidermidis ATCC 12228
The entries below are paired with their reported MIC.

CS(=O)(=O)NCCCCN1c2cc(Cl)ccc2Sc2cc3ccccc3nc21 | > 256 µg/mL
Clc1ccc2c(c1)N(Cc1cn(-c3ccccc3)nn1)c1nc3ccccc3cc1S2 | > 256 µg/mL

Bench note: what MIC did CCOC(=O)NCCCN1c2cc(Cl)ccc2Sc2cc3ccccc3nc21 show? > 256 µg/mL
